subject.of.test: Glutaminase kidney isoform, mitochondrial (Homo sapiens)
method.notes: Inhibition of GLS1 (unknown origin)
pIC50: −log10 of the molar value.

input.smiles	relation.symbol	pIC50
CCCN1CCC(CNC(=O)c2cccc(COCCC3CCN(c4nnc(NC(=O)Cc5ccccc5)s4)CC3)c2)CC1	=	6.59
CCNCCNC(=O)c1ccc(CN2CCN(c3nnc(NC(=O)Cc4ccccc4)s3)CC2)cc1	=	6.66
CN1CCC(CNC(=O)c2ccc(COCCC3CCN(c4nnc(NC(=O)Cc5ccccc5)s4)CC3)cc2)CC1	=	6.49
CN1CCN(c2ccc(C(=O)Nc3cccc(CN4CCN(c5nnc(NC(=O)Cc6ccccc6)s5)CC4)c3)cc2)CC1	=	7.05
O=C(Cc1ccccc1)Nc1nnc(N2CCN(Cc3ccc(C(=O)NCCN4CCCC4)cc3)CC2)s1	=	6.79
CN1CCN(c2cccc(NC(=O)c3ccc(COCCC4CCN(c5nnc(NC(=O)Cc6ccccc6)s5)CC4)cc3)c2)CC1	=	7.21
O=C(Cc1ccccc1)Nc1nnc(CCc2ccc(C(=O)N3CCCCC3)cc2)s1	<	5.00
C=CCCC(=O)N1CCC(CNC(=O)c2ccc(COCCC3CCN(c4nnc(NC(=O)Cc5ccccc5)s4)CC3)cc2)CC1	=	6.57
CCCNC(=O)c1ccc(CCc2nnc(NC(=O)Cc3ccccc3)s2)cc1	<	5.00
CCCCCCN1CCC(CNC(=O)c2cccc(COCCC3CCN(c4nnc(NC(=O)Cc5ccccc5)s4)CC3)c2)CC1	=	7.17
CCCNC(=O)c1ccc(COC2CCN(c3nnc(NC(=O)Cc4ccccc4)s3)CC2)cc1	=	5.97
CC(C)N1CCC(CNC(=O)c2ccc(COCCC3CCN(c4nnc(NC(=O)Cc5ccccc5)s4)CC3)cc2)CC1	=	6.44
Cc1cccc(CN(C)C(=O)c2ccc(CN3CCN(c4nnc(NC(=O)Cc5ccccc5)s4)CC3)cc2)c1	<	6.00
O=C(Cc1ccccc1)Nc1nnc(N2CCN(Cc3ccc(C(=O)NCCNc4ccccc4)cc3)CC2)s1	=	6.97
CCN(CC)CCNC(=O)c1ccc(CN2CCN(c3nnc(NC(=O)Cc4ccccc4)s3)CC2)cc1	=	6.58
CN1CCN(c2cccc(C(=O)Nc3cccc(CN4CCN(c5nnc(NC(=O)Cc6ccccc6)s5)CC4)c3)c2)CC1	=	7.11
CN1CCC(CNC(=O)c2ccc(COC3CCN(c4nnc(NC(=O)Cc5ccccc5)s4)CC3)cc2)CC1	<	5.00

----------
Test system: HCT-116
method.notes: cells
details: Homo sapiens
Categorize each record by its IC50 using interval 1 (below 2 µM), interval 2 (2 µM to below 4 µM), interval 3 (4 µM or more)

input.smiles	assigned.category
O=C(Cc1ccccc1)Nc1nnc(N2CCN(Cc3cccc(C(=O)NCCN4CCCCC4)c3)CC2)s1	interval 1
O=C(Cc1ccccc1)Nc1nnc(N2CCN(Cc3ccc(C(=O)NCc4cccc(C(F)(F)F)c4)cc3)CC2)s1	interval 1
COCCNC(=O)c1ccc(CN2CCN(c3nnc(NC(=O)Cc4ccccc4)s3)CC2)cc1	interval 3
CN1CCC(CNC(=O)c2ccc(CN3CCN(c4nnc(NC(=O)Cc5ccccc5)s4)CC3)cc2)CC1	interval 3
Cc1ccc(NC(=O)c2ccc(CN3CCN(c4nnc(NC(=O)Cc5ccccc5)s4)CC3)cc2)cc1	interval 1
CC(C)N1CCC(CNC(=O)c2ccc(COCCC3CCN(c4nnc(NC(=O)Cc5ccccc5)s4)CC3)cc2)CC1	interval 2
CCN(CC)CCNC(=O)c1cccc(COCCC2CCN(c3nnc(NC(=O)Cc4ccccc4)s3)CC2)c1	interval 3
CN1CCN(c2cccc(NC(=O)c3cccc(CN4CCN(c5nnc(NC(=O)Cc6ccccc6)s5)CC4)c3)c2)CC1	interval 1
CCCCNC(=O)c1ccc(COCC2CCN(c3nnc(NC(=O)Cc4ccccc4)s3)CC2)cc1	interval 3
CCCNC(=O)c1ccc(COCCC2CCN(c3nnc(NC(=O)Cc4ccccc4)s3)CC2)cc1	interval 2

----------
Listed here: items and their measured IC50.
subject.of.test: Glutaminase kidney isoform, mitochondrial (Homo sapiens)
method.notes: Inhibition of GLS1 (unknown origin)

input.smiles	relation.symbol	IC50 / nM
CCN(CC)CCNC(=O)c1cccc(CN2CCN(c3nnc(NC(=O)Cc4ccccc4)s3)CC2)c1	=	345
COCCNC(=O)c1ccc(CN2CCN(c3nnc(NC(=O)Cc4ccccc4)s3)CC2)cc1	>	10000
O=C(Cc1ccccc1)Nc1nnc(N2CCN(Cc3ccc(C(=O)NCCc4ccc(F)cc4)cc3)CC2)s1	=	300
Cc1ccccc1CN1CCC(CNC(=O)c2ccc(COCCC3CCN(c4nnc(NC(=O)Cc5ccccc5)s4)CC3)cc2)CC1	=	135
CN1CCN(c2cccc(NC(=O)c3cccc(CN4CCN(c5nnc(NC(=O)Cc6ccccc6)s5)CC4)c3)c2)CC1	=	65
CN1CCC(CNC(=O)c2cccc(COCCC3CCN(c4nnc(NC(=O)Cc5ccccc5)s4)CC3)c2)CC1	=	802
CCN(CC)CCNC(=O)c1ccc(CCc2nnc(NC(=O)Cc3ccccc3)s2)cc1	>	10000
CN1CCN(c2ccc(NC(=O)c3ccc(CN4CCN(c5nnc(NC(=O)Cc6ccccc6)s5)CC4)cc3)cc2)CC1	=	250

----------
Listed here: items and their measured IC50.
subject.of.test: Glutaminase kidney isoform, mitochondrial (Homo sapiens, UniProt O94925)
Sequence (O94925 whole entry, canonical isoform): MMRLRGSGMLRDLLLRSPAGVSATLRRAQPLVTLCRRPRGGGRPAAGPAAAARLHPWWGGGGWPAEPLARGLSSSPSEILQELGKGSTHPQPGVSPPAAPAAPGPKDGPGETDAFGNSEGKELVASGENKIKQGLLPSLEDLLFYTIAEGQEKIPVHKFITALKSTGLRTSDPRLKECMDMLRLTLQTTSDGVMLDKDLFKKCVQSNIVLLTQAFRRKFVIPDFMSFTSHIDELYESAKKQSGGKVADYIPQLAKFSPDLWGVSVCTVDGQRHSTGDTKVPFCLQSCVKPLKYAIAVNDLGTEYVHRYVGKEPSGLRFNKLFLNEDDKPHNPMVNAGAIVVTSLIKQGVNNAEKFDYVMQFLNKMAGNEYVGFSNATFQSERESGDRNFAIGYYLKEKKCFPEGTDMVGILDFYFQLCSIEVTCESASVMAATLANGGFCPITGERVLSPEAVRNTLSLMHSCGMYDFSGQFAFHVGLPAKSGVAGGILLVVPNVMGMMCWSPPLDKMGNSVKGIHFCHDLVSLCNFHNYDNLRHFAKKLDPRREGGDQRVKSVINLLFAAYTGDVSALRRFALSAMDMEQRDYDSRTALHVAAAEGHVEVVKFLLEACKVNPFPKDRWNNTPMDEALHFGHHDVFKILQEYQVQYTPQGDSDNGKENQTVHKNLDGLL
method.notes: Inhibition of GLS1 (unknown origin)

input.smiles	IC50
CN1CCN(c2cccc(NC(=O)c3ccc(CN4CCN(c5nnc(NC(=O)Cc6ccccc6)s5)CC4)cc3)c2)CC1	79 nM
CCCCN1CCC(CNC(=O)c2ccc(COCCC3CCN(c4nnc(NC(=O)Cc5ccccc5)s4)CC3)cc2)CC1	120 nM
CN1CCN(c2ccc(C(=O)Nc3ccc(CN4CCN(c5nnc(NC(=O)Cc6ccccc6)s5)CC4)cc3)cc2)CC1	66 nM
CCCCCCN1CCC(CNC(=O)c2ccc(COCCC3CCN(c4nnc(NC(=O)Cc5ccccc5)s4)CC3)cc2)CC1	88 nM
CCCN1CCC(CNC(=O)c2ccc(COCCC3CCN(c4nnc(NC(=O)Cc5ccccc5)s4)CC3)cc2)CC1	290 nM
CCCCN1CCC(CNC(=O)c2cccc(COCCC3CCN(c4nnc(NC(=O)Cc5ccccc5)s4)CC3)c2)CC1	160 nM
O=C(Cc1ccccc1)Nc1nnc(N2CCC(CCOCc3cccc(C(=O)NCCN4CCCC4)c3)CC2)s1	489 nM
O=C(Cc1ccccc1)Nc1nnc(CCc2ccc(C(=O)NCCN3CCCC3)cc2)s1	> 10000 nM

----------
subject.of.test: Glutaminase kidney isoform, mitochondrial (Homo sapiens, UniProt O94925)
method.notes: Inhibition of GLS1 (unknown origin)
pIC50: −log10 of the molar value.
Listed here: items and their measured pIC50.

input.smiles	subject.of.test	pIC50
O=C(Cc1ccccc1)Nc1nnc(N2CCN(Cc3ccc(C(=O)NCc4cccc(C(F)(F)F)c4)cc3)CC2)s1	Glutaminase kidney isoform, mitochondrial (Homo sapiens, UniProt O94925)	6.60
Cc1ccccc1CN1CCC(CNC(=O)c2cccc(COCCC3CCN(c4nnc(NC(=O)Cc5ccccc5)s4)CC3)c2)CC1	Glutaminase kidney isoform, mitochondrial (Homo sapiens, UniProt O94925)	7.07
O=C(Cc1ccccc1)Nc1nnc(N2CCC(CCOCc3cccc(C(=O)NCC4CCN(Cc5cc(F)cc(F)c5)CC4)c3)CC2)s1	Glutaminase kidney isoform, mitochondrial (Homo sapiens, UniProt O94925)	6.90
CCCCNC(=O)c1ccc(COCC2CCN(c3nnc(NC(=O)Cc4ccccc4)s3)CC2)cc1	Glutaminase kidney isoform, mitochondrial (Homo sapiens, UniProt O94925)	6.28

----------
method.notes: in vivo
details: rat, iv, 5 mg/kg

input.smiles	half-life
O=C(Cc1ccccc1)Nc1nnc(CCSCCc2nnc(NC(=O)Cc3ccccc3)s2)s1	3.8 h

----------
method.notes: Terminal half life in rat at 3 mg/kg, iv
Assay type: ADME, organism-based
details: in vivo, read-out: beta t1/2 (converted)
metric.name: half-life (h)

input.smiles	experimental.result
CCCCCCN1CCC(CNC(=O)c2cccc(COCCC3CCN(c4nnc(NC(=O)Cc5ccccc5)s4)CC3)c2)CC1	9.9

----------
method.notes: AUC(0 to t) in rat at 5 mg/kg, po
Assay type: ADME, organism-based
Parameters: dose 5 mg/kg, route po
details: in vivo
metric.name: AUC(0-t) (ng·h/mL)

input.smiles	experimental.result
O=C(Cc1ccccc1)Nc1nnc(CCSCCc2nnc(NC(=O)Cc3ccccc3)s2)s1	12.5

----------
details: human, microsomes
Description: Metabolic stability in human liver microsome assessed as intrinsic clearance
Think of 40 g/mL/min as a floor: if CLH stands on it or above, it is criterion met; beneath it, criterion not met.

input.smiles	assigned.category
CCCCCCN1CCC(CNC(=O)c2cccc(COCCC3CCN(c4nnc(NC(=O)Cc5ccccc5)s4)CC3)c2)CC1	criterion not met
CN1CCN(c2ccc(C(=O)Nc3ccc(CN4CCN(c5nnc(NC(=O)Cc6ccccc6)s5)CC4)cc3)cc2)CC1	criterion met
CN1CCN(c2cccc(NC(=O)c3ccc(COCCC4CCN(c5nnc(NC(=O)Cc6ccccc6)s5)CC4)cc3)c2)CC1	criterion not met
CN1CCN(c2cccc(NC(=O)c3cccc(CN4CCN(c5nnc(NC(=O)Cc6ccccc6)s5)CC4)c3)c2)CC1	criterion not met
CCCCCCN1CCC(CNC(=O)c2ccc(COCCC3CCN(c4nnc(NC(=O)Cc5ccccc5)s4)CC3)cc2)CC1	criterion not met
CN1CCN(c2cccc(NC(=O)c3ccc(CN4CCN(c5nnc(NC(=O)Cc6ccccc6)s5)CC4)cc3)c2)CC1	criterion met
Cc1ccccc1CN1CCC(CNC(=O)c2cccc(COCCC3CCN(c4nnc(NC(=O)Cc5ccccc5)s4)CC3)c2)CC1	criterion met
